Target: AKT1 (Homo sapiens, UniProt P31749)
Sequence (P31749 whole entry): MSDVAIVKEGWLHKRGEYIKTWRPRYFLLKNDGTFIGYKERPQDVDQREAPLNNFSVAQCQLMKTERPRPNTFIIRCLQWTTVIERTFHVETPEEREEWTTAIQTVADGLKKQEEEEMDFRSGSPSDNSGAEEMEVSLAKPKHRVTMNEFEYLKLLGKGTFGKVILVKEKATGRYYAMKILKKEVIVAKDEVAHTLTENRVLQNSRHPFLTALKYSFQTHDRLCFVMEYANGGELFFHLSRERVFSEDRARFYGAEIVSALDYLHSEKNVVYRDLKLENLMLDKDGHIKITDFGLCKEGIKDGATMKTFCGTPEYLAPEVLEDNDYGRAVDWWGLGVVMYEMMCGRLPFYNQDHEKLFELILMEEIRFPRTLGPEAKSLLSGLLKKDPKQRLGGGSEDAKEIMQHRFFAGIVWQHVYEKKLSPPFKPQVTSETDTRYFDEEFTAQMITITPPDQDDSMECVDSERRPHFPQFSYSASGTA
Assay: AKT Kinase Assay (IMAP fluorescent polarisation) vs AKT1
Details: activated AKT1, FAM Crosstide substrate
Structures can show the parent of a compound that is named as a salt.
For each of the compounds below, state its IC50.

List IC50 for every entry below, keeping the order given.
1. COc1nc(NC(C)=O)nc2oc(-c3ccc(C4(N)CCC4)cc3)c(-c3ccccc3)c12
2. NC1(c2ccc(-c3oc4ncn(CCO)c(=O)c4c3-c3ccccc3)cc2)CCC1 [Example 102, HCl]
3. N#Cc1ccc2oc(-c3ccc(C4(N)CCC4)cc3)c(-c3ccccc3)c2c1
4. COc1nc(N2CCC(N)CC2)nc2oc(-c3ccc(C4(N)CCC4)cc3)c(-c3ccccc3)c12
5. NC1(c2ccc(-c3oc4nc(NCCO)nc(N5CCOCC5)c4c3-c3ccccc3)cc2)CCC1

1. ≤ 100 nM
2. 1000 to 10000 nM
3. 1000 to 10000 nM
4. 100 to 1000 nM
5. 1000 to 10000 nM

List IC50 for every entry below, keeping the order given.
1. N#CCn1cnc2oc(-c3ccc(C4(N)CCC4)cc3)c(-c3ccccc3)c2c1=O
2. Cn1c(N2CCC(O)CC2)nc2oc(-c3ccc(C4(N)CCC4)cc3)c(-c3ccccc3)c2c1=O [Example 59, hydrochloride]

100 to 1000 nM
100 to 1000 nM

List IC50 for every entry below, keeping the order given.
1. Cc1n[nH]c(C)c1-c1cnc2oc(-c3ccc(C4(N)CCC4)cc3)c(-c3ccccc3)c2n1
2. Cn1c(NCCO)nc2oc(-c3ccc(C4(N)CCC4)cc3)c(-c3ccccc3)c2c1=O [Example 64, hydrochloride]
3. Cc1nc(NCCO)nc2oc(-c3ccc(C4(N)CCC4)cc3)c(-c3ccccc3)c12

1000 to 10000 nM
≤ 100 nM
100 to 1000 nM

* * *

Molecular target: AKT1 (Homo sapiens, UniProt P31749)
Assay: AKT Kinase Assay (IMAP fluorescent polarisation) vs AKT1
Details: activated AKT1, FAM Crosstide substrate
For each of the compounds below, state its IC50.

COMPOUND	IC50
Cn1c(N2CCOCC2)nc2oc(-c3ccc(C4(N)CCC4)cc3)c(-c3ccccc3)c2c1=O [Example 82]	0.1 to 1 µM
COc1ncc(Br)c2c(-c3ccccc3)c(-c3ccc(C4(N)CCC4)cc3)oc12 [Example 132]	0.1 to 1 µM
Cn1cc(-c2cncnc2)c2oc(-c3ccc(C4(N)CCC4)cc3)c(-c3ccccc3)c2c1=O [Example 115]	0.1 to 1 µM
NC1(c2ccc(-c3oc4ncc(-c5ccn[nH]5)nc4c3-c3ccccc3)cc2)CCC1 [Example 144]	1 to 10 µM
NC1(c2ccc(-c3oc4nc(NCCO)[nH]c(=O)c4c3-c3ccccc3)cc2)CCC1 [Example 76]	≤ 0.1 µM
CSc1cnc2c(-c3ccccc3)c(-c3ccc(C4(N)CCC4)cc3)[nH]c2n1 [Example 153]	0.1 to 1 µM

List IC50 for every entry below, keeping the order given.
1. COc1nc(OCCO)nc2oc(-c3ccc(C4(N)CCC4)cc3)c(-c3ccccc3)c12 [Example 36]
2. NC1(c2ccc(-c3c(-c4ccccc4)oc4cccnc34)cc2)CCC1 [Example 23]
3. Cn1c(N2CCNC(=O)C2)nc2oc(-c3ccc(C4(N)CCC4)cc3)c(-c3ccccc3)c2c1=O [Example 99]
4. Cn1cc(-c2cnc3oc(-c4ccc(C5(N)CCC5)cc4)c(-c4ccccc4)c3n2)cn1 [Example 136]
5. NC1(c2ccc(-c3oc4nc(N5CCNCC5)ncc4c3-c3ccccc3)cc2)CCC1 [Example 53]
6. NC1(c2ccc(-c3oc4c(=O)n(CCF)ccc4c3-c3ccccc3)cc2)CCC1 [Example 130]

["≤ 0.1 µM", "> 10 µM", "1 to 10 µM", "1 to 10 µM", "0.1 to 1 µM", "1 to 10 µM"]

* * *

For each of the compounds below, state its IC50.
Biological target: AKT3 (Homo sapiens, UniProt Q9Y243)
Sequence (Q9Y243 whole entry): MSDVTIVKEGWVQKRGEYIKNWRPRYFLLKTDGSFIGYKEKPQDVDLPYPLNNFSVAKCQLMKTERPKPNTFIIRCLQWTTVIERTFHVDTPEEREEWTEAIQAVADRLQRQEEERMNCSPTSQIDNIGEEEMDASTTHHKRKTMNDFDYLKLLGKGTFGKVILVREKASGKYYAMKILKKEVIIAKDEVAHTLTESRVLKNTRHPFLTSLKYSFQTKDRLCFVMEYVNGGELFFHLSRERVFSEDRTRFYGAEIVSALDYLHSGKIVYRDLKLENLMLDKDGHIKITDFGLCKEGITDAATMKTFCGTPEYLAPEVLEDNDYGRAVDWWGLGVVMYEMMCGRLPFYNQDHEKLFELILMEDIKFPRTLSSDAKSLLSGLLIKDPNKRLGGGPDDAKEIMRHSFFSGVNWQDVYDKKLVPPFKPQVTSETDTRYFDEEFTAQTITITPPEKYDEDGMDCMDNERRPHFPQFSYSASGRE
Assay: AKT Kinase Assay (IMAP fluorescent polarisation) vs AKT3
Conditions: activated AKT3, FAM Crosstide substrate
Structures can show the parent of a compound that is named as a salt.

COMPOUND	TEST_SYSTEM	READOUT_TYPE	ENDPOINT_RESULT
COc1ncc(Br)c2c(-c3ccccc3)c(-c3ccc(C4(N)CCC4)cc3)oc12 [Example 132]	AKT3 (Homo sapiens, UniProt Q9Y243)	IC50	> 10 µM
Cn1cc(C(N)=O)c2oc(-c3ccc(C4(N)CCC4)cc3)c(-c3ccccc3)c2c1=O [Example 117]	AKT3 (Homo sapiens, UniProt Q9Y243)	IC50	1 to 10 µM
NC1(c2ccc(-c3oc4ncn(CCF)c(=O)c4c3-c3ccccc3)cc2)CCC1 [Example 103, HCl]	AKT3 (Homo sapiens, UniProt Q9Y243)	IC50	1 to 10 µM

Need IC50 of NC1(c2ccc(-c3oc4nc[nH]c(=O)c4c3-c3ccccc3)cc2)CCC1 [Example 12] , thanks.
1 to 10 µM
